Test: Renal clearance / drug excretion, free vs liposomal
Assay type: in vivo
Reported Conditions: mouse, in vivo, iv; after 4 days; mice
Measured Parameter: dose excreted at 96 h

Task: What measured dose excreted at 96 h goes with NCC[C@H](O)C(=O)N[C@@H]1C[C@H](N)[C@@H](O[C@H]2O[C@H](CN)[C@@H](O)[C@H](O)[C@H]2O)[C@H](O)[C@H]1O[C@H]1O[C@H](CO)[C@@H](O)[C@H](N)[C@H]1O ?
Output: ~80%
